Source: patent US7925520B2

Protocol Details: Measurement 3: migration R of drug ion to liposome
Assay type: physicochemical
Applied Conditions: 20 mM EPC liposome and 3.125 mM drug solution 1:1 by volume; 37° C., 18 hours; average of 3
Reported LogR (migration R of drug ion to liposome) values for a set of compounds
Quantity: LogR (migration R of drug ion to liposome)

>  <Compound>
O=C(O)Cc1ccc(-c2ccccc2)cc1

>  <Reported Measurement>
0.27

$$$$
>  <Compound>
O=C(O)c1ccccc1O

>  <Reported Measurement>
−0.49

$$$$
>  <Compound>
O=C(O)Cc1c[nH]c2ccccc12

>  <Reported Measurement>
−0.69

$$$$
>  <Compound>
COc1ccc2c(c1)c(CC(=O)O)c(C)n2C(=O)c1ccc(Cl)cc1

>  <Reported Measurement>
0.23

$$$$
>  <Compound>
O=C(O)CCCc1c[nH]c2ccccc12

>  <Reported Measurement>
−0.26

$$$$
>  <Compound>
CC(C(=O)O)c1cccc(C(=O)c2ccccc2)c1 (stereo not drawn)

>  <Reported Measurement>
−0.29

$$$$
